Listing of entries alongside the reported z-score.
Experiment: plasmodial surface anion channel blockers, osmotic lysis – cell-based, P. falciparum Indochina, OD700, 1 h, primary screen (AID 1154)
Conditions: P. falciparum Indochina infected RBC osmotic lysis; higher = more signal, called active from +8 up or from −8 down unless noted
// return just the number, without any unit appended

Solved entries (count: 5):
molecule: CCCc1cc2c(n1Cc1ccco1)C(C)C1CN(C(=O)c3ccccc3)C(C)(C(=O)OC)C21 (stereo not drawn)
z-score: 5.21
--
molecule: CCOC(=O)[C@H]1CC=C2C(=O)Oc3ccccc3[C@@H]21
z-score: 1.27
--
molecule: C[C@@H]1OC=C2[C@@H](O)[C@H]3O[C@H]3C(=O)[C@]23[C@H]1[C@H]1C2=C([C@@H](O)[C@H]4O[C@H]4C2=O)[C@@H]3O[C@@H]1C
z-score: -0.531
--
molecule: CCCC=C(CCC)[C@@H](NP(=O)(c1ccccc1)c1ccccc1)c1ccccc1
z-score: 4.03
--
molecule: c1ccc(-c2cc3c(nc2-c2ccccc2)CCNC3)cc1
z-score: 1.39

Enquiry: Can you share its z-score? I mean this molecule: CCCC[C@@H]1C[C@H]1[C@@H](NP(=O)(c1ccccc1)c1ccccc1)c1ccc(Cl)cc1
Return: 7.22

Enquiry: Quick one: z-score of CCOC(=O)[C@H]1CC=C2C(=O)Oc3ccc(Br)cc3[C@@H]21 ?
Return: 1.79

Enquiry: I have this molecule here, CCc1cc2c(nc1CC)CCN(CCC(C)=NOC)C2 , and I need its recorded z-score.
Return: 1.69
